target-entity: Aryl hydrocarbon receptor (Homo sapiens) (UniProt P35869)
Sequence (P35869 whole entry, looked up): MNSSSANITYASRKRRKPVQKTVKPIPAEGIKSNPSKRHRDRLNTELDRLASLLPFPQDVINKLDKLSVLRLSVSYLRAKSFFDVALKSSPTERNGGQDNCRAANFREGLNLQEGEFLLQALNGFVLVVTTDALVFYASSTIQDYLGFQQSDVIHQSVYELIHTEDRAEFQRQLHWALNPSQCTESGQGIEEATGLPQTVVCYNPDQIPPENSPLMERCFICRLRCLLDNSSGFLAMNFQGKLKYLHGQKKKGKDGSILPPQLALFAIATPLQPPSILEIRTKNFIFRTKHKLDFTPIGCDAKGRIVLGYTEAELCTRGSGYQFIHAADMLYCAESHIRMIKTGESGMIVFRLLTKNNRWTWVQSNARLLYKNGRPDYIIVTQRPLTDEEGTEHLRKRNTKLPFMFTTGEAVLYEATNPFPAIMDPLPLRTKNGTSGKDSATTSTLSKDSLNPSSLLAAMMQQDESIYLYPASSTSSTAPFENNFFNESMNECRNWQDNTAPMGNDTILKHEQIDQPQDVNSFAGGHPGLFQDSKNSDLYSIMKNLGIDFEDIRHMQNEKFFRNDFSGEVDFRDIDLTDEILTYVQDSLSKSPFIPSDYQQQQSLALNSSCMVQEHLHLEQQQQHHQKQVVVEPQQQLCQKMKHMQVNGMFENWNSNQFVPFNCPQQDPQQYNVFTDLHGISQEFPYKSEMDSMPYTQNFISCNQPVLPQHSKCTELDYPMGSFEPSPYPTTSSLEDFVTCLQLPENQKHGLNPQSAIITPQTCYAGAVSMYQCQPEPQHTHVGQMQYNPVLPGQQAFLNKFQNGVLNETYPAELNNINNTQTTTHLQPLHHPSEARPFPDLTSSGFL
test: ATG_Ahr_CIS: Attagene CIS-FACTORIAL HepG2 Assay for human Aryl Hydrocarbon Receptor (Ahr) (AID 2282930)
condition-context: HepG2 AhR cis-factorial reporter transcription; actives raise or lower the signal
Active and inactive are the calls of the source. Rule for the calls: active = hit-call score of the fitted dose curve at least 0.9, where 1 is the maximum; inactive = score below 0.9.
Would you mind answering with one of these outcomes? label 1 for active, label 0 for inactive

Per the records of this test, what outcome belongs to `C=CC(=O)N(C)C` ? label 0

Per the records of this test, what outcome belongs to `OCc1ccco1` ? label 0

Per the records of this test, what outcome belongs to CCC(C)c1cccc(C(C)CC)c1O (stereo not given) ? label 0

Per the records of this test, what outcome belongs to CCSC(C)CC1CC(=O)C(C(CC)=NOC/C=C/Cl)=C(O)C1 (stereo not given) ? label 1

Per the records of this test, what outcome belongs to `Nc1ccc(-c2ccc(N)c(Cl)c2)cc1Cl` ? label 1

Per the records of this test, what outcome belongs to `COP(=S)(OC)Oc1cc(Cl)c(Cl)cc1Cl` ? label 1

Per the records of this test, what outcome belongs to `O=CC=O` ? label 0

Per the records of this test, what outcome belongs to `CCOC(=O)Nc1cccc(OC(=O)Nc2ccccc2)c1` ? label 0

Per the records of this test, what outcome belongs to `CC(C)c1cccc(C(C)C)c1O` ? label 0

Per the records of this test, what outcome belongs to `CCc1ccccc1N` ? label 1

Per the records of this test, what outcome belongs to `COC[C@H](C)N(C(=O)CCl)c1c(C)csc1C` ? label 0

Per the records of this test, what outcome belongs to `CN(C)N=O` ? label 0

Per the records of this test, what outcome belongs to `O=C(CCl)CCl` ? label 0

Per the records of this test, what outcome belongs to CC(Br)C(=O)O (stereo not given) ? label 0

Per the records of this test, what outcome belongs to `CCCCCCCCSC(=O)Oc1cc(Cl)nnc1-c1ccccc1` ? label 0

Per the records of this test, what outcome belongs to `COC(=O)c1sccc1S(=O)(=O)NC(=O)Nc1nc(C)nc(OC)n1` ? label 0

Per the records of this test, what outcome belongs to `CN(CCCC(=O)c1cccnc1)N=O` ? label 0

Per the records of this test, what outcome belongs to `CCC[CH2][Sn]([CH2]CCC)([CH2]CCC)[O]C(=O)c1ccccc1` ? label 0

Per the records of this test, what outcome belongs to `CC(=[OH+])/C=C(/C)[O-].CC(=[OH+])/C=C(/C)[O-].CC(=[OH+])/C=C(/C)[O-].[Al]` ? label 0

Per the records of this test, what outcome belongs to `Cc1ccccc1N` ? label 0

----------
test: ATG_Sox_CIS: Attagene CIS-FACTORIAL HepG2 Assay for human SRY-box transcription factor (SOX) (AID 2282960)
condition-context: HepG2 Attagene cis-factorial SOX reporter, mRNA; actives raise or lower the signal
Active and inactive are the calls of the source. The calls were made as follows: active = hit-call score of the fitted dose curve at least 0.9, where 1 is the maximum; inactive = score below 0.9.
value-kind: outcome

>>> obs_value("CCc1ccccc1N")
"inactive"
>>> obs_value("Clc1ccc(C2(Cn3cncn3)CC(Br)CO2)c(Cl)c1 (stereo not drawn)")
"inactive"
>>> obs_value("Cl/C=C/Cl")
"inactive"

----------
Read-out: Plasminogen activator inhibitor-1 (PAI1), SERPINE1 (gene 5054)
test: BSK_hDFCGF_PAI1: BioMAP Diversity Plus: hDFCGF Assay for Plasminogen activator inhibitor-1 (PAI1) Biomarker Activity (AID 2283066)
condition-context: primary human foreskin fibroblasts; actives raise or lower the signal
Activity calls are given as the source filed them. The calls were made as follows: active = hit-call score of the fitted dose curve at least 0.9, where 1 is the maximum; inactive = score below 0.9.
Would you mind answering with one of these outcomes? active, inactive

Per the records of this test, what outcome belongs to ClC1(Cl)C2(Cl)C3(Cl)C4(Cl)C(Cl)(Cl)C5(Cl)C3(Cl)C1(Cl)C5(Cl)C24Cl (stereo not given) ? inactive

Per the records of this test, what outcome belongs to `C[C@@H]1C[C@@H]([C@H](O)CC2CC(=O)NC(=O)C2)C(=O)[C@@H](C)C1` ? active

Per the records of this test, what outcome belongs to `CC(=O)[O][Hg][c]1ccccc1` ? active

Per the records of this test, what outcome belongs to `COP(=S)(OC)Oc1c(Cl)cc(C)cc1Cl` ? inactive

Per the records of this test, what outcome belongs to `COP(=S)(OC)Oc1ccc(Sc2ccc(OP(=S)(OC)OC)cc2)cc1` ? active

----------
target-entity: Cellular tumor antigen p53 (Homo sapiens)
test: ATG_p53_CIS: Attagene CIS-FACTORIAL HepG2 Assay for human p53 Transcription Factor (AID 2282994)
condition-context: HepG2 p53 cis-element reporter, Attagene mRNA; actives raise or lower the signal
Activity calls are given as the source filed them. How the source made its calls: active means hit-call score of the fitted dose curve at least 0.9, where 1 is the maximum; inactive means score below 0.9.
Would you mind answering with one of these outcomes? Yes (active), No (inactive)

Per the records of this test, what outcome belongs to `CCNc1nc(NC(C)(C)C)nc(SC)n1` ? No

Per the records of this test, what outcome belongs to `N#CN=C(N)N` ? No

Per the records of this test, what outcome belongs to `Cl/C=C\C[N+]12CN3CN(CN(C3)C1)C2` ? Yes

Per the records of this test, what outcome belongs to `Cl/C=C/Cl` ? No

Per the records of this test, what outcome belongs to `COc1cc(-c2ccc(N)c(OC)c2)ccc1N` ? No

Per the records of this test, what outcome belongs to `CCCCCCCCc1ccc(O)cc1` ? No

Per the records of this test, what outcome belongs to `O=C(O)C(F)(F)C(F)(F)C(F)(F)C(F)(F)C(F)(F)C(F)(F)F` ? No

Per the records of this test, what outcome belongs to `O=S(=O)(c1ccc(Cl)cc1)c1ccc(Cl)cc1` ? No

Per the records of this test, what outcome belongs to `C(=NC1CCCCC1)=NC1CCCCC1` ? No

Per the records of this test, what outcome belongs to `O=C(Nc1ccc2[nH]ccc2c1)c1cc2cc(F)ccc2n1Cc1cccc(F)c1` ? No

Per the records of this test, what outcome belongs to `Cc1cc(Cl)ccc1O[C@H](C)C(=O)O` ? No

Per the records of this test, what outcome belongs to `C[C@H]1O[C@@H](O[C@H]2[C@@H](O)C[C@H](O[C@H]3[C@@H](O)C[C@H](O[C@H]4CC[C@@]5(C)[C@H](CC[C@@H]6[C@@H]5CC[C@]5(C)[C@@H](C7=CC(=O)OC7)CC[C@]65O)C4)O[C@@H]3C)O[C@@H]2C)C[C@H](O)[C@@H]1O` ? No

Per the records of this test, what outcome belongs to `Clc1nc(Cl)nc(Cl)n1` ? No

Per the records of this test, what outcome belongs to `O=C(Cc1ccccc1)c1ccccc1` ? No

Per the records of this test, what outcome belongs to `CC(C)c1cccc(C(C)C)c1O` ? No

Per the records of this test, what outcome belongs to CC(C#N)CCC#N (configuration not stated) ? No

Per the records of this test, what outcome belongs to `[O-][Cl+2]([O-])O` ? No

Per the records of this test, what outcome belongs to `O=[N+]([O-])c1c(Cl)c(Cl)cc(Cl)c1Cl` ? No

Per the records of this test, what outcome belongs to `ClC1=C(Cl)[C@]2(Cl)[C@H]3[C@H]([C@H]4C=C[C@H]3C4)[C@@]1(Cl)C2(Cl)Cl` ? No

Per the records of this test, what outcome belongs to `Nc1ccc(Cl)cc1C(=O)c1ccccc1` ? No

Per the records of this test, what outcome belongs to `O=C/C=C/c1ccccc1` ? No

Per the records of this test, what outcome belongs to `O=[N+]([O-])c1ccc2c3c(cccc13)CC2` ? No

Per the records of this test, what outcome belongs to `Cn1sc(Cl)cc1=O` ? No

Per the records of this test, what outcome belongs to `Oc1ccc(-c2ccccc2)cc1` ? Yes

Per the records of this test, what outcome belongs to `ClCC(Cl)CCl` ? No

Per the records of this test, what outcome belongs to `CN(C)N=O` ? No

Per the records of this test, what outcome belongs to `CC(=O)[O][Hg][c]1ccccc1` ? No

Per the records of this test, what outcome belongs to `CCCCCCCCSC(=O)Oc1cc(Cl)nnc1-c1ccccc1` ? No

Per the records of this test, what outcome belongs to CCC(=O)C(CC(C)N(C)C)(c1ccccc1)c1ccccc1 (configuration not stated) ? Yes

Per the records of this test, what outcome belongs to `COc1ccc(C=O)cc1` ? No

Per the records of this test, what outcome belongs to `CC(C)OC(=O)Nc1ccccc1` ? No

Per the records of this test, what outcome belongs to CNC(=O)O/N=C/C(C)(C)S(C)=O (configuration not stated) ? No

Per the records of this test, what outcome belongs to `COc1cc2c(cc1OC)[C@@]13CCN4CC5=CCO[C@H]6CC(=O)N2[C@H]1[C@H]6[C@H]5C[C@H]43` ? No

Per the records of this test, what outcome belongs to `CC(=[OH+])/C=C(/C)[O-].CC(=[OH+])/C=C(/C)[O-].CC(=[OH+])/C=C(/C)[O-].[Al]` ? No

Per the records of this test, what outcome belongs to `c1cc[c]([Hg][c]2ccccc2)cc1` ? No

Per the records of this test, what outcome belongs to ClC1(Cl)C2(Cl)C3(Cl)C4(Cl)C(Cl)(Cl)C5(Cl)C3(Cl)C1(Cl)C5(Cl)C24Cl (configuration not stated) ? No

Per the records of this test, what outcome belongs to `C[C@@H](Oc1ccc(Cl)cc1Cl)C(=O)O` ? No

From: PubChem BioAssay (EPA / NIEHS)
